These data points were gathered from the supplement of paper PMC6607015.

tested on: A431; assay: whole-cell filipin (free cholesterol) integrated intensity, Z-score; higher = more cholesterol staining; conditions: compound concentration in added solution (µM; 5 µl added to 20 µl cells): 10; 18 h
Where a name gives a salt, the structure may show the parent alone.
Measured whole-cell filipin (z-score) of individual entries

| Compound | whole-cell filipin (z-score) |
| --- | --- |
| C[C@]12CC[C@@H]3c4ccc(O)cc4C[C@@H](CCCCCCCCC[S+]([O-])CCCC(F)(F)C(F)(F)F)[C@H]3[C@@H]1CC[C@@H]2O (stereo partly drawn) [Fulvestrant] | 1.52 |
| Cc1c(NC(=O)c2cccnc2)c(=O)n(-c2ccccc2)n1C [Nifenazone] | -0.738 |
| O=S(=O)(O)CCS [Mesna] | -0.163 |
| O=C1CN(/N=C/c2ccc(-c3ccc([N+](=O)[O-])cc3)o2)C(=O)N1 [Dantrolene sodium salt] | -1.1 |
| CC1(C)S[C@@H]2[C@H](NC(=O)[C@H](C(=O)O)c3ccsc3)C(=O)N2[C@H]1C(=O)O [Ticarcillin sodium] | -0.165 |
| COC(=O)C1=C(C)NC(C)=C(C(=O)OCC(C)C)C1c1ccccc1[N+](=O)[O-] (stereo not drawn) [Nisoldipine] | 0.622 |
| CN(c1nccc(=O)[nH]1)C1CCN(c2nc3ccccc3n2Cc2ccc(F)cc2)CC1 [Mizolastine] | -0.708 |
| CO[C@@H]1[C@@H](O[C@@H]2O[C@H](C)[C@@H](O[C@H]3C[C@@](C)(O)[C@@H](OC(=O)CC(C)C)[C@H](C)O3)[C@H](N(C)C)[C@H]2O)[C@@H](CC=O)C[C@@H](C)[C@@H](O)/C=C/C=C/C[C@@H](C)OC(=O)C[C@H]1OC(C)=O [Josamycin] | -0.459 |
